Test system: Mus musculus
Experiment: Toxic CNS activity in C57BL/6 mouse assessed as locomotor activity by measuring exploratory activity counts at 10 mg/kg, ig by open-field test (reference value: 94.50 +/- 6.18 counts)
Type: toxicity, organism-based
Design: dose 10 mg/kg, route intragastric
Conditions: in vivo, po
value.type: Activity
# print the numeric value only

molecule	Activity
CN1CCN(C(=O)/C=C/c2cc3c(c(C(F)(F)F)c2)OCO3)CC1	86.2
CN(C)C(=O)/C=C/c1cc2c(c(C(F)(F)F)c1)OCO2	84
CC(C)CNC(=O)/C=C/c1ccc2c(c1)OCO2 [FOGARAMIDE]	89.24
CNCCC(Oc1ccc(C(F)(F)F)cc1)c1ccccc1 (stereo unspecified)	102
CC(C)CNC(=O)CCc1cc2c(c(C(F)(F)F)c1)OCO2	86.6
CC(C)CNC(=O)/C=C/c1cc(I)c2c(c1)OCO2	94.42
O=C(/C=C/c1cc2c(c(C(F)(F)F)c1)OCO2)N1CCCCC1	83.6
CC(C)CNC(=O)/C=C/c1cc2c(c(C(F)(F)F)c1)OCO2	99.4

Query block: Fill in the blank: the reported Activity of CCN(CC)C(=O)/C=C/c1cc2c(c(C(F)(F)F)c1)OCO2 is ____.
Result block: 95.3

Query block: Fill in the blank: the reported Activity of CC(C)CNC(=O)/C=C/c1cc2c(c([N+](=O)[O-])c1)OCO2 is ____.
Result block: 98

Query block: Fill in the blank: the reported Activity of O=C(/C=C/c1cc2c(c(C(F)(F)F)c1)OCO2)N1CCNCC1 is ____.
Result block: 91.54

Values were extracted from ChEMBL document CHEMBL3352543.
